Source listed as PubChem BioAssay (NCI).

# System: SN12C renal
# test: NCI tumour cell line growth inhibition, 48 h
quantity-name: TGI

The cases that follow already have their TGI on record.
compound | tested-system | TGI
COC(=O)c1ccc(/C=C2\N=C(C)OC2=O)cc1 | SN12C renal | > 100 µM
O=C(CCC(=O)Nc1cccc(Cl)c1)CC(=O)c1ccc(Cl)cc1 | SN12C renal | > 100 µM

Challenge: TGI lookup needed for `O=c1[nH]c2cc(Cl)ccc2n1C1CCN(CCCC(c2ccc(F)cc2)c2ccc(F)cc2)CC1` , thanks.
Response given: 3.27 µM

Challenge: TGI lookup needed for `Nc1nc(Cl)cc(NCCO)n1` , thanks.
Response given: > 100 µM

Challenge: TGI lookup needed for `CN(Nc1cc(=O)[nH]c(=O)[nH]1)c1ccccc1` , thanks.
Response given: > 100 µM

Challenge: TGI lookup needed for `CCCCCCCCCc1cc(=O)c2c(O)cccc2o1` , thanks.
Response given: > 100 µM

Challenge: TGI lookup needed for COc1ccc(C2C(C#N)=C(N)OC3=C2COc2ccc(F)cc23)cc1OC (configuration not stated) , thanks.
Response given: 89.4 µM

Challenge: TGI lookup needed for N#CC(/C(=N/NC(=O)C(=O)NN)C(=O)NC12CC3CC(CC(C3)C1)C2)c1ccccc1 (configuration not stated) , thanks.
Response given: > 100 µM

###

GI50 tested on K-562 leukemia: recorded values

compound | quantity-name | recorded-result
Cc1n(Cc2ccc3ccccc3c2)cc[n+]1Cc1ccc2ccccc2c1 | GI50 | 0.478 µM
CC(=O)Oc1ccc(Nc2c3ccccc3nc3ccccc23)cc1 | GI50 | 1.45 µM
Cc1[nH][nH]c(=O)c1C=Nc1ccc(-c2nc3ccccc3[nH]2)cc1 | GI50 | 27.4 µM
NS(=O)(=O)c1ccc(-n2c(-c3cccs3)nc3ccc(I)cc3c2=O)cc1 | GI50 | 37.2 µM
Nc1nc(Br)nc2c1ncn2C1CC(O)C(CO)O1 (stereo unspecified) | GI50 | > 24 µM
CCN(CC)CCOc1ccc(/C(=C(\C)c2ccc(F)c(OC)c2)c2ccc(Cl)cc2)cc1 | GI50 | 0.855 µM
CCCCCc1c(C)[nH]c(/C=C2\N=C(c3ccc[nH]3)C=C2CC)c1C | GI50 | < 0.01 µM
COc1ccc(C2C(C#N)=C(N)OC3=C2COc2ccc(F)cc23)cc1OC (stereo unspecified) | GI50 | 31.8 µM

Challenge: Identify the measured GI50 of `O=C(N/N=C\c1cc(Br)ccc1O)c1ccncc1` for K-562 leukemia.
Response given: 3.37 µM

Challenge: Identify the measured GI50 of `CN(C)c1ccc2nc3ccc(=O)cc-3sc2c1` for K-562 leukemia.
Response given: 0.919 µM

Challenge: Identify the measured GI50 of `O=C(CN(C1CCCCC1)C1CCCCC1)Nc1ccc(S(=O)(=O)c2ccc(NC(=O)CN(C3CCCCC3)C3CCCCC3)cc2)cc1` for K-562 leukemia.
Response given: 0.277 µM

###

# Tested on: MDA-MB-435
# test: NCI tumour cell line growth inhibition, 48 h
Quick rule for you: TGI at 2 µM or higher means T, lower means F.

compound | tested-system | assigned-category
Cc1n(Cc2ccc3ccccc3c2)cc[n+]1Cc1ccc2ccccc2c1 | MDA-MB-435 | T
O=C(O)c1cccc(OCCO)c1 | MDA-MB-435 | T
O=C1/C(=C\c2cccn2Cc2ccccc2)c2ccccc2N1c1c(Cl)cccc1Cl | MDA-MB-435 | T
CC(=O)c1csc2c1C(=O)c1scc(C(C)=O)c1C2=O | MDA-MB-435 | F
CC(=O)c1c(CBr)n([O-])c2ccccc2[n+]1=O | MDA-MB-435 | T
NC(=O)C(=CNc1nc(-c2ccc(Cl)c(Cl)c2)cs1)C(N)=O | MDA-MB-435 | T

Challenge: Does the compound `CCOC(=O)C1(C(=O)OCC)CN(CC)CN(c2ccccc2)C1` have recorded TGI that is 2 µM or more?
Response given: T

Challenge: Does the compound `O=C(Nc1cccc(Cl)c1Cl)c1cccc(NC2=C(Cl)C(=O)N(Cc3ccccc3)C2=O)c1` have recorded TGI that is 2 µM or more?
Response given: T

Challenge: Does the compound `C#CCn1ncc2c(SCc3ccccc3)ncnc21` have recorded TGI that is 2 µM or more?
Response given: T

Challenge: Does the compound N#CC1(C2SCCS2=O)C2=C(C(=O)c3ccccc3C2=O)N2CCCC21 (stereo unspecified) have recorded TGI that is 2 µM or more?
Response given: F

Challenge: Does the compound `Cc1cc(C)cc(C(=N)c2ccccc2Cc2cccc3ccccc23)c1` have recorded TGI that is 2 µM or more?
Response given: T

###

# Tested on: HOP-18 NSCLC
# test: NCI tumour cell line growth inhibition, 48 h
quantity-name: TGI

molecule | TGI
CC(=O)OCC1OC([S-])C(OC(C)=O)C(OC(C)=O)C1OC(C)=O.CC[PH+](CC)CC.CC[PH+](CC)CC.[Au].[Au] (stereo not given) | 0.694 µM
O=S(O)CCCCSSCc1ccccc1CSSCCCCS(=O)O | > 100 µM
N#CC(C#N)=c1[nH]c2cccc3c2-c2c(cccc2c3=C(C#N)C#N)[nH]1 | > 100 µM
COc1cc2c(cc1OC)C(O)[C@H](Br)C(C)(C)O2 (stereo not given in full) | > 100 µM

Now examine the next entry.
Challenge: TGI lookup needed for CCCCN1C=CN2c3nc4cc(C)c(C)cc4n3C(C(=O)OC)=C(C(=O)OC)C12 (stereo not given) , thanks.
Response given: > 100 µM

###

The following molecules are listed with their measured TGI values.
# Test system: MOLT-4 leukemia
# test: NCI tumour cell line growth inhibition, 48 h

The cases that follow already have their TGI on record.
molecule | TGI
C[C@]12CCC(=O)C=C1CC[C@@H]1C2CC[C@]2(C)c3nn(-c4ccc(F)cc4)nc3CC12 (stereo not given in full) | > 100 µM
COc1ccc(C[N+]23C(CC[C@H]2c2ccccc2)CC[C@H]3c2ccccc2)cc1 (stereo not given in full) | 90.1 µM
CSC1=C(SC)SC(=C2SC3=C(SC(=C4SCCS4)S3)S2)S1 | > 100 µM
Cc1cn(C2CC(N(O)Cc3ccccc3)C(CO)O2)c(=O)[nH]c1=O (stereo not given) | > 100 µM
O=C(C(=O)N1CCc2ccccc21)c1c[nH]c2ccccc12 | > 10 µM
O=C(O)c1nc(-c2ccccn2)c(-c2ccccn2)nc1C(=O)O | > 28.3 µM

Challenge: TGI lookup needed for CC1(C)OCC2OC3(c4nc(C#N)c(N)o4)OC(C)(C)OC3C2O1 (stereo not given) , thanks.
Response given: > 100 µM

Challenge: TGI lookup needed for `O=S(O)CCCCSSCc1ccccc1CSSCCCCS(=O)O` , thanks.
Response given: 14.5 µM

Challenge: TGI lookup needed for `Clc1ccc(Cl)c(Nc2ccnc(SCc3ccccc3)n2)c1` , thanks.
Response given: > 100 µM

Challenge: TGI lookup needed for `NS(=O)(=O)c1ccc(-n2c(-c3cccs3)nc3ccc(I)cc3c2=O)cc1` , thanks.
Response given: > 100 µM

###

# Tested on: HCC-2998 colon
# test: NCI tumour cell line growth inhibition, 48 h
quantity-name: TGI (µM)
Give the value in µM but do not write µM after it.

The cases that follow already have their TGI on record.
molecule | readout-units | TGI
C#CC(=O)Nc1cccc(Nc2nc3c(c(NCc4ccccc4)n2)CCCC3)c1 | µM | 2.9
COc1ccc(/C=c2/sc3n(c2=O)C(c2ccc(OC)c(OC)c2)C2=C(N=3)c3cc(F)ccc3OC2)cc1 (stereo unspecified) | µM | 21.2
COc1ccc2c(c1)CN1C(=N2)CSC1c1cc([N+](=O)[O-])ccc1Cl (stereo unspecified) | µM | 58.7
OCCCCC#Cc1ccccc1C#Cc1cccc(O)c1 | µM | 35.5
O=c1[nH]c2cc(Cl)ccc2n1C1CCN(CCCC(c2ccc(F)cc2)c2ccc(F)cc2)CC1 | µM | 3.49
COc1ccnc2c1C(=O)c1nc3ccccc3c3ccnc-2c13 | µM | 1.52

Challenge: TGI lookup needed for Nc1ccc(C(=O)NN2C(=O)C(Cl)C2c2ccccc2Cl)cc1 (stereo unspecified) , thanks.
Response given: 30.1

Challenge: TGI lookup needed for `NC(N)=N/N=C/c1cc(Cl)cc(Cl)c1O` , thanks.
Response given: 32

Challenge: TGI lookup needed for CCC1OC2C(CC=C(C)C)=C3OC(C)(O)C(C)(CC)C(OC(=O)c4ccccc4)C3=C3OC(=O)C=C1C32 (stereo unspecified) , thanks.
Response given: 48.4

###

# Tested on: TK-10 renal
# test: NCI tumour cell line growth inhibition, 48 h
quantity-name: TGI

molecule | tested-system | quantity-name | recorded-result
CC1(C)c2ccccc2C(=O)C12CCC(=O)CC2 | TK-10 renal | TGI | > 100 µM

Challenge: TGI lookup needed for `CCOC(=O)C1(C(=O)OCC)CN(CC)CN(c2ccccc2)C1` , thanks.
Response given: 33.1 µM

Challenge: TGI lookup needed for `Cc1n(Cc2ccc3ccccc3c2)cc[n+]1Cc1ccc2ccccc2c1` , thanks.
Response given: 5.1 µM

Challenge: TGI lookup needed for CC1(C)OCC2OC3(c4nc(C#N)c(N)o4)OC(C)(C)OC3C2O1 (stereo not drawn) , thanks.
Response given: > 100 µM

Challenge: TGI lookup needed for `CNC(=S)N/N=C(C)\C(=N/NC(=S)NC)c1ccccc1` , thanks.
Response given: > 100 µM

Challenge: TGI lookup needed for `NC1CCCC[C@H]1N.N[C@@H]1CCCC[C@@H]1N.O=C(P(=O)([O-])[O-])P(=O)([O-])[O-].[Pt+4].[Pt+4]` , thanks.
Response given: > 100 µM

Challenge: TGI lookup needed for `Nc1nc(Nc2ccccc2)c2ncn(Cc3cc4c(cc3Br)OCO4)c2n1` , thanks.
Response given: 18.1 µM

Challenge: TGI lookup needed for CC(=O)OC1CC2c3cccc4c3C(CC2N(C)C1=O)CN4C(=O)c1ccccc1 (stereo not drawn) , thanks.
Response given: > 100 µM

Challenge: TGI lookup needed for `Cc1ccc2nc(-c3ccc(N)c(I)c3)sc2c1` , thanks.
Response given: 17.7 µM

Challenge: TGI lookup needed for `N#Cc1sc2nc(/C=C3/C=CC=CC3=O)c(O)n2c1N` , thanks.
Response given: > 100 µM
